test system: A549; assay: Cytotoxicity against human A549 cells assessed as cell growth inhibition at 50 uM after 48 hrs by sulphorhodamine B assay; assay type: functional; settings: A549, 48 h, read-out: GI
Assign inhibition of growth at 50 µM to each entry below.
Please reply with the bare figure in % and do not write the unit itself.

molecule `C=CCNC[C@@H]1C(=O)O[C@H]2[C@H]1CCC(C)=C1C[C@H]3O[C@@]3(C)[C@@H]12` , inhibition of growth at 50 µM observed: 0

// inhibition of growth at 50 µM value for `CC1=C2C[C@H]3O[C@@]3(C)[C@@H]2[C@H]2OC(=O)[C@@H](CN3CCOCC3)[C@@H]2CC1` : 42

inhibition of growth at 50 µM reported for this molecule `CC1=C2C[C@H]3O[C@@]3(C)[C@@H]2[C@H]2OC(=O)[C@@H](CNCc3ccc(F)cc3)[C@@H]2CC1` : 16

Reported inhibition of growth at 50 µM ( `CCCCNC[C@@H]1C(=O)O[C@H]2[C@H]1CCC(C)=C1C[C@H]3O[C@@]3(C)[C@@H]12` ) = 0

Recorded inhibition of growth at 50 µM (molecule `CCN(CC)C[C@@H]1C(=O)O[C@H]2[C@H]1CCC(C)=C1C[C@H]3O[C@@]3(C)[C@@H]12` ): 73

// inhibition of growth at 50 µM lookup, molecule = `CCCNC[C@@H]1C(=O)O[C@H]2[C@H]1CCC(C)=C1C[C@H]3O[C@@]3(C)[C@@H]12` , result: 39

// sample `CC1=C2C[C@H]3O[C@@]3(C)[C@@H]2[C@H]2OC(=O)[C@@H](CN3CCCC3)[C@@H]2CC1` , its inhibition of growth at 50 µM was 0
